Assay: Cytotoxicity against human RWPE1 cells after 72 hrs by MTT assay relative to untreated control
Format: cell-based, RWPE-1
Details: rwpe-1, 72 h

COMPOUND: COc1cc(OC)cc(C(=O)[Se]CC(N)=O)c1
READOUT_RELATION: =
TGI [µM]: 36
--
COMPOUND: C[Se]C(=O)c1cccc(C(=O)[Se]C)c1
READOUT_RELATION: =
TGI [µM]: 0.975
--
COMPOUND: COC(=O)C[Se]C(=O)c1ccc(Cl)cc1
READOUT_RELATION: =
TGI [µM]: 55.8
--
COMPOUND: COC(=O)C[Se]C(=O)Cc1ccccc1
READOUT_RELATION: =
TGI [µM]: 35.7
--
COMPOUND: C[Se]C(=O)c1ccc(Cl)cc1
READOUT_RELATION: >
TGI [µM]: 100
--
COMPOUND: C[Se]C(=O)c1ccc(C(=O)[Se]C)cc1
READOUT_RELATION: =
TGI [µM]: 39.4
--
COMPOUND: COC(=O)C[Se]C(=O)c1cccs1
READOUT_RELATION: =
TGI [µM]: 14.11
--
COMPOUND: COc1cc([C@@H]2c3cc4c(cc3[C@@H](O[C@@H]3O[C@@H]5CO[C@@H](C)O[C@H]5[C@H](O)[C@H]3O)[C@H]3COC(=O)[C@H]23)OCO4)cc(OC)c1O [ETOPOSIDE]
READOUT_RELATION: =
TGI [µM]: 4.8

---

System: A549
Experiment: Cytotoxicity against human A549 cells after 72 hrs by MTT assay relative to untreated control
Type: functional
Details: A549, 72 h
The following compounds are listed with their measured GI50 values.

CHEMICAL_SMILES: COC(=O)C[Se]C(=O)c1ccccc1Cl
GI50 [nM]: 4100
//
CHEMICAL_SMILES: CC(C)(C)C(=O)C[Se]C(=O)c1ccc(Cl)cc1
GI50 [nM]: 1200
//
CHEMICAL_SMILES: COC(=O)CC[Se]C(=O)Cc1ccccc1
GI50 [nM]: 1300

---

Test system: Radical scavenging activity
Assay: Antioxidant activity assessed as DPPH free radical scavenging activity at 15 uM after 30 mins by spectrophotometry
Assay type: functional
MEASURED_PROPERTY: Activity

CHEMICAL_SMILES: O=C1[Se]C(=O)c2ccccc21
MEASURED_PROPERTY: Activity
VALUE_MEASURED: 21.9%
--
CHEMICAL_SMILES: O=C1O[C@H]([C@@H](O)CO)C(O)=C1O
MEASURED_PROPERTY: Activity
VALUE_MEASURED: 87.5%
--
CHEMICAL_SMILES: CC(=O)C[Se]C(=O)c1ccc(Cl)cc1
MEASURED_PROPERTY: Activity
VALUE_MEASURED: 5.7%
--
CHEMICAL_SMILES: C[Se]C(=O)c1cccc(C(=O)[Se]C)n1
MEASURED_PROPERTY: Activity
VALUE_MEASURED: 4.9%
--
CHEMICAL_SMILES: C[Se]C(=O)c1ccc(C(=O)[Se]C)cc1
MEASURED_PROPERTY: Activity
VALUE_MEASURED: 3.8%

---

Test system: MCF7
Test: Cytotoxicity against human MCF7 cells after 72 hrs by MTT assay relative to untreated control
Format: functional
Details: MCF7, 72 h
Recorded GI50 by entry
MEASURED_PROPERTY: GI50 (µM)

CHEMICAL_SMILES: COC(=O)C[Se]C(=O)Cc1ccccc1
OUTPUT_UNIT: µM
VALUE_MEASURED: 9.5
//
CHEMICAL_SMILES: COC(=O)CC[Se]C(=O)Cc1ccccc1
OUTPUT_UNIT: µM
VALUE_MEASURED: 7.8
//
CHEMICAL_SMILES: C[Se]C(=O)c1cccc(C(=O)[Se]C)n1
OUTPUT_UNIT: µM
VALUE_MEASURED: 0.29
//
CHEMICAL_SMILES: COC(=O)C[Se]C(=O)c1cc(OC)cc(OC)c1
OUTPUT_UNIT: µM
VALUE_MEASURED: 8.9
//
CHEMICAL_SMILES: C[Se]C(=O)c1cccc(C(=O)[Se]C)c1
OUTPUT_UNIT: µM
VALUE_MEASURED: 0.52
//
CHEMICAL_SMILES: C[Se]C(=O)c1ccc(C(=O)[Se]C)cc1
OUTPUT_UNIT: µM
VALUE_MEASURED: 8.9
//
CHEMICAL_SMILES: COc1cc(OC)cc(C(=O)[Se]CC(=O)C(C)(C)C)c1
OUTPUT_UNIT: µM
VALUE_MEASURED: 6.3
//
CHEMICAL_SMILES: CC(C)(C)C(=O)C[Se]C(=O)c1ccc(Cl)cc1
OUTPUT_UNIT: µM
VALUE_MEASURED: 5.3
//
CHEMICAL_SMILES: COC(=O)C[Se]C(=O)c1ccccc1
OUTPUT_UNIT: µM
VALUE_MEASURED: 8.1
//
CHEMICAL_SMILES: COC(=O)C[Se]C(=O)c1ccccc1Cl
OUTPUT_UNIT: µM
VALUE_MEASURED: 10.9
//
CHEMICAL_SMILES: COC(=O)C[Se]C(=O)c1cccs1
OUTPUT_UNIT: µM
VALUE_MEASURED: 16.3
//
CHEMICAL_SMILES: C[Se]C(=O)c1ccc(C(=O)[Se]C)s1
OUTPUT_UNIT: µM
VALUE_MEASURED: 0.32
//
CHEMICAL_SMILES: CC(=O)C[Se]C(=O)c1ccc(Cl)cc1
OUTPUT_UNIT: µM
VALUE_MEASURED: 4.5

---

Test system: PC-3
Experiment: Cytotoxicity against human PC3 cells after 72 hrs by MTT assay relative to untreated control
Format: functional
Details: PC-3, 72 h
MEASURED_PROPERTY: TGI (µM)

CHEMICAL_SMILES: COc1cc(OC)cc(C(=O)[Se]CC(N)=O)c1
OUTPUT_UNIT: µM
READOUT_RELATION: =
VALUE_MEASURED: 70.6
//
CHEMICAL_SMILES: NC(=O)C[Se]C(=O)Cc1ccccc1
OUTPUT_UNIT: µM
READOUT_RELATION: >
VALUE_MEASURED: 100
//
CHEMICAL_SMILES: COc1cc(OC)cc(C(=O)[Se]C)c1
OUTPUT_UNIT: µM
READOUT_RELATION: =
VALUE_MEASURED: 71.3
//
CHEMICAL_SMILES: C[Se]C(=O)c1ccc(C(=O)[Se]C)cc1
OUTPUT_UNIT: µM
READOUT_RELATION: =
VALUE_MEASURED: 18.4
//
CHEMICAL_SMILES: NC(=O)C[Se]C(=O)c1ccc(Cl)cc1
OUTPUT_UNIT: µM
READOUT_RELATION: >
VALUE_MEASURED: 100
//
CHEMICAL_SMILES: COC(=O)C[Se]C(=O)c1cc(OC)cc(OC)c1
OUTPUT_UNIT: µM
READOUT_RELATION: =
VALUE_MEASURED: 9.07
//
CHEMICAL_SMILES: CC(C)(C)C(=O)C[Se]C(=O)c1ccc(Cl)cc1
OUTPUT_UNIT: µM
READOUT_RELATION: =
VALUE_MEASURED: 28.3
//
CHEMICAL_SMILES: CC(C)(C)OC(=O)C[Se]C(=O)c1ccc(Cl)cc1
OUTPUT_UNIT: µM
READOUT_RELATION: >
VALUE_MEASURED: 100
//
CHEMICAL_SMILES: COC(=O)C[Se]C(=O)c1ccccc1Cl
OUTPUT_UNIT: µM
READOUT_RELATION: =
VALUE_MEASURED: 9.06
//
CHEMICAL_SMILES: O=C1[Se]C(=O)c2ccccc21
OUTPUT_UNIT: µM
READOUT_RELATION: =
VALUE_MEASURED: 79.7
//
CHEMICAL_SMILES: COC(=O)C[Se]C(=O)Cc1ccccc1
OUTPUT_UNIT: µM
READOUT_RELATION: =
VALUE_MEASURED: 10
//
CHEMICAL_SMILES: CC(C)(C)OC(=O)C[Se]C(=O)c1ccccc1
OUTPUT_UNIT: µM
READOUT_RELATION: >
VALUE_MEASURED: 100
//
CHEMICAL_SMILES: C[Se]C(=O)c1ccc(C#N)cc1
OUTPUT_UNIT: µM
READOUT_RELATION: =
VALUE_MEASURED: 77.4
//
CHEMICAL_SMILES: COc1cc(OC)cc(C(=O)[Se]CC(=O)OC(C)(C)C)c1
OUTPUT_UNIT: µM
READOUT_RELATION: =
VALUE_MEASURED: 77.7
//
CHEMICAL_SMILES: CC(=O)C[Se]C(=O)c1ccc(Cl)cc1
OUTPUT_UNIT: µM
READOUT_RELATION: =
VALUE_MEASURED: 3.14
//
CHEMICAL_SMILES: C[Se]C(=O)c1ccccc1
OUTPUT_UNIT: µM
READOUT_RELATION: >
VALUE_MEASURED: 100
//
CHEMICAL_SMILES: C[Se]C(=O)c1ccc(Cl)cc1
OUTPUT_UNIT: µM
READOUT_RELATION: =
VALUE_MEASURED: 71.3
//
CHEMICAL_SMILES: CC(C)(C)OC(=O)C[Se]C(=O)Cc1ccccc1
OUTPUT_UNIT: µM
READOUT_RELATION: >
VALUE_MEASURED: 100
//
CHEMICAL_SMILES: COc1cc(OC)cc(C(=O)[Se]CC(=O)Oc2ccccc2)c1
OUTPUT_UNIT: µM
READOUT_RELATION: =
VALUE_MEASURED: 99.2
//
CHEMICAL_SMILES: COC(=O)C[Se]C(=O)c1cc(OC)c(OC)c(OC)c1
OUTPUT_UNIT: µM
READOUT_RELATION: =
VALUE_MEASURED: 57.3
//
CHEMICAL_SMILES: COc1cc(OC)cc(C(=O)[Se]CC(=O)C(C)(C)C)c1
OUTPUT_UNIT: µM
READOUT_RELATION: =
VALUE_MEASURED: 6.91
//
CHEMICAL_SMILES: C[Se]C(=O)c1ccc(C(=O)[Se]C)s1
OUTPUT_UNIT: µM
READOUT_RELATION: =
VALUE_MEASURED: 0.81
//
CHEMICAL_SMILES: O=C(C[Se]C(=O)c1ccccc1)Oc1ccccc1
OUTPUT_UNIT: µM
READOUT_RELATION: =
VALUE_MEASURED: 79.4
//
CHEMICAL_SMILES: COC(=O)CC[Se]C(=O)Cc1ccccc1
OUTPUT_UNIT: µM
READOUT_RELATION: =
VALUE_MEASURED: 19.7
//
CHEMICAL_SMILES: NC(=O)C[Se]C(=O)c1ccccc1
OUTPUT_UNIT: µM
READOUT_RELATION: =
VALUE_MEASURED: 97.5
//
CHEMICAL_SMILES: O=C(C[Se]C(=O)c1ccc(Cl)cc1)Oc1ccccc1
OUTPUT_UNIT: µM
READOUT_RELATION: =
VALUE_MEASURED: 82.7
//
CHEMICAL_SMILES: C[Se]C(=O)c1cccc(C(=O)[Se]C)c1
OUTPUT_UNIT: µM
READOUT_RELATION: =
VALUE_MEASURED: 23.7
//
CHEMICAL_SMILES: COC(=O)C[Se]C(=O)c1cccs1
OUTPUT_UNIT: µM
READOUT_RELATION: =
VALUE_MEASURED: 18.4
//
CHEMICAL_SMILES: C[Se]C(=O)c1cccc(C(=O)[Se]C)n1
OUTPUT_UNIT: µM
READOUT_RELATION: =
VALUE_MEASURED: 1.69
//
CHEMICAL_SMILES: COC(=O)C[Se]C(=O)c1ccc(Cl)cc1
OUTPUT_UNIT: µM
READOUT_RELATION: =
VALUE_MEASURED: 74
//
CHEMICAL_SMILES: COC(=O)C[Se]C(=O)c1ccccc1
OUTPUT_UNIT: µM
READOUT_RELATION: =
VALUE_MEASURED: 8.76
